Target: T1, 4H319-bA
T1 chain: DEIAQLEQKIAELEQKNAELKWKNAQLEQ
Assay: two-hybrid library CCNG1;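 also: natural log of median RNA to DNA barcode read ratio; higher means stronger binding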

binder	interaction score
DKIAQLKQKNAELKQKNAELEWEIAQLEQ [4H3057-bA]	-1.24
DKIAQLKQENAELEQEIAELEWENAQLKQ [4H2692-bA]	-0.498
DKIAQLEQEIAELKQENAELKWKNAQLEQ [4H2143-bA]	-1.13
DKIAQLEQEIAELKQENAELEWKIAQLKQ [4H2134-bA]	-0.399
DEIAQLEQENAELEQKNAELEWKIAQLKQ [4H182-bA]	-0.41
DEIAQLEQKIAELEQKNAELKWKNAQLEQ [4H319-bA]	-0.125
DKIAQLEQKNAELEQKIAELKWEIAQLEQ [4H2473-bA]	-0.981
DKIAQLKQEIAELEQENAELKWENAQLKQ [4H2588-bA]	0.789
DKIAQLKQKIAELKQKIAELEWENAQLEQ [4H2915-bA]	1.12
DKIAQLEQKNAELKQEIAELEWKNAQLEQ [4H2503-bA]	-1.63
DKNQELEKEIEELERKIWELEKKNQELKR [4H3112-bH]	-3.07
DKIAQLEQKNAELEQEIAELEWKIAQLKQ [4H2438-bA]	-0.948
DKIAQLKQKIAELEQENAELEWKNAQLEQ [4H2839-bA]	1.61
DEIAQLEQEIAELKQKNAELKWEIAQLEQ [4H121-bA]	-1.51
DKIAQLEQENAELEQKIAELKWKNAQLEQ [4H2223-bA]	-0.61
